target.of.assay: human PLK1 kinase domain (Homo sapiens)
Construct: Each reaction consisted of 30 nM enzyme PLK1 kinase domain
Sequence (P53350 53-305 limits assumed): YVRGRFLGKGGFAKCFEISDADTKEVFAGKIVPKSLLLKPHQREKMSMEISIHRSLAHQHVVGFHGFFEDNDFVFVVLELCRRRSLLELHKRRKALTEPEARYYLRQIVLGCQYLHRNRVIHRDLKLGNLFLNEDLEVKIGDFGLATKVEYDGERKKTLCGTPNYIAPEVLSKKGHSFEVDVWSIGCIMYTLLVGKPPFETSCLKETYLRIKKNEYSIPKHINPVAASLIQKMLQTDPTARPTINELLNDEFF
assay.remarks: In vitro PLK1 assay (IMAP fluorescence polarization kinase assay)
Format: biochemical
details: at 10 uM compound
Given measured inhibition at 10 µM, output Y if it is greater than or equal to 60% and N if not.

[[record]]
smiles_representation = "Cc1noc(NS(=O)(=O)c2ccc(Nc3cc(-c4ccccc4OC(F)(F)F)ncn3)cc2)c1C"
group = "Y"

[[record]]
smiles_representation = "COc1ccc(COc2ccccc2-c2cc(Nc3ccc(S(=O)(=O)Nc4onc(C)c4C)cc3)ncn2)cc1"
group = "N"

[[record]]
smiles_representation = "COc1ccccc1-c1cc(Nc2ccc(S(=O)(=O)Nc3nnc(C)s3)cc2)ncn1"
group = "Y"


Task item: Reported inhibition at 10 µM at or above 60%? COc1cc(Cl)ccc1-c1cc(Nc2ccc(S(=O)(=O)Nc3onc(C)c3C)cc2)ncn1
Reply: Y

Task item: Reported inhibition at 10 µM at or above 60%? Cc1noc(NS(=O)(=O)c2ccc(Nc3cc(-c4cc(Cl)ccc4OC(C)C)ncn3)cc2)c1C
Reply: Y

Task item: Reported inhibition at 10 µM at or above 60%? Cc1noc(NS(=O)(=O)c2ccc(Nc3cc(-c4ccc(N)cc4)ncn3)cc2)c1C
Reply: Y

Task item: Reported inhibition at 10 µM at or above 60%? Cc1noc(NS(=O)(=O)c2ccc(Nc3cc(-c4ccccc4COc4ccc(OC(F)(F)F)cc4)ncn3)cc2)c1C
Reply: N
